Molecular target: Nitric oxide synthase, inducible (Mus musculus, UniProt P29477)
Sequence (P29477 whole entry): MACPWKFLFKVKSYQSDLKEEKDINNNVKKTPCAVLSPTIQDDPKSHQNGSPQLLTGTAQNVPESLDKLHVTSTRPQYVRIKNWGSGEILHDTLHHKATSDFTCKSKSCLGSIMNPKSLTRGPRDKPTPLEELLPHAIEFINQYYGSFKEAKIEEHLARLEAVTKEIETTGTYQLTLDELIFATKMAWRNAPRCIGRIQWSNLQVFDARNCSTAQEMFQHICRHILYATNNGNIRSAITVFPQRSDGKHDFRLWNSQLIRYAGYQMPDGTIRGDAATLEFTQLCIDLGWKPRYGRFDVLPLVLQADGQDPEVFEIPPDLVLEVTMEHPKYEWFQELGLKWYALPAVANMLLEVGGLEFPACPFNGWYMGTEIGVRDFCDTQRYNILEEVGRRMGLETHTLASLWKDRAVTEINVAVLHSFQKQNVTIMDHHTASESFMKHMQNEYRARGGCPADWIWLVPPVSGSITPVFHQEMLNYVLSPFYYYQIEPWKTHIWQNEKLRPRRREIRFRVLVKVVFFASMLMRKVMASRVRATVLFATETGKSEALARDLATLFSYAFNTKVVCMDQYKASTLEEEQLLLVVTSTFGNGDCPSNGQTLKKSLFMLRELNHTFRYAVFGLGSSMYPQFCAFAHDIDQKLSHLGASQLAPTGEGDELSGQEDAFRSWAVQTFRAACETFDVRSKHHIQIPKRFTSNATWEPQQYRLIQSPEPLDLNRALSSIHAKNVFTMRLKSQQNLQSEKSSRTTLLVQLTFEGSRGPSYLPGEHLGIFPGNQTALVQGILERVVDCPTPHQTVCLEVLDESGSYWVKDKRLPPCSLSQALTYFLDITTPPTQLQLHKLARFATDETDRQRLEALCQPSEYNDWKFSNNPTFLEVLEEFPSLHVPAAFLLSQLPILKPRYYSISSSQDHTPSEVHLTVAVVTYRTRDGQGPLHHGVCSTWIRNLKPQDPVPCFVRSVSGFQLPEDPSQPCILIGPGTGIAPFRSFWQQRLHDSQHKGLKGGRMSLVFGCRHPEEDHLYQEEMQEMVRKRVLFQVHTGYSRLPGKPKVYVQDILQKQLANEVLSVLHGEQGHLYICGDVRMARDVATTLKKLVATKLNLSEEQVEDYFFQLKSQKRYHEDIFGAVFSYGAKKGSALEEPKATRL
# criterion met = Ki below 7 µM (exclusive); criterion not met = Ki at/above 7 µM

structure_string	group_label
Cc1cc(N)nc(CCc2cc(C#N)cc(CCCN(C)C)c2)c1	criterion not met
CNCCCc1cc(C#N)cc(CCc2cc(C)cc(N)n2)c1	criterion not met
CNCc1ccc(-c2cncc(CCc3cc(C)cc(N)n3)c2)cc1	criterion met
CNc1cccc(-c2cncc(CCc3cc(C)cc(N)n3)c2)c1	criterion met
CNCCCc1cc(F)cc(CCc2cc(C)cc(N)n2)c1	criterion met

###

Biological target: Nitric oxide synthase 1 (Homo sapiens)
Sequence (P29475 whole entry): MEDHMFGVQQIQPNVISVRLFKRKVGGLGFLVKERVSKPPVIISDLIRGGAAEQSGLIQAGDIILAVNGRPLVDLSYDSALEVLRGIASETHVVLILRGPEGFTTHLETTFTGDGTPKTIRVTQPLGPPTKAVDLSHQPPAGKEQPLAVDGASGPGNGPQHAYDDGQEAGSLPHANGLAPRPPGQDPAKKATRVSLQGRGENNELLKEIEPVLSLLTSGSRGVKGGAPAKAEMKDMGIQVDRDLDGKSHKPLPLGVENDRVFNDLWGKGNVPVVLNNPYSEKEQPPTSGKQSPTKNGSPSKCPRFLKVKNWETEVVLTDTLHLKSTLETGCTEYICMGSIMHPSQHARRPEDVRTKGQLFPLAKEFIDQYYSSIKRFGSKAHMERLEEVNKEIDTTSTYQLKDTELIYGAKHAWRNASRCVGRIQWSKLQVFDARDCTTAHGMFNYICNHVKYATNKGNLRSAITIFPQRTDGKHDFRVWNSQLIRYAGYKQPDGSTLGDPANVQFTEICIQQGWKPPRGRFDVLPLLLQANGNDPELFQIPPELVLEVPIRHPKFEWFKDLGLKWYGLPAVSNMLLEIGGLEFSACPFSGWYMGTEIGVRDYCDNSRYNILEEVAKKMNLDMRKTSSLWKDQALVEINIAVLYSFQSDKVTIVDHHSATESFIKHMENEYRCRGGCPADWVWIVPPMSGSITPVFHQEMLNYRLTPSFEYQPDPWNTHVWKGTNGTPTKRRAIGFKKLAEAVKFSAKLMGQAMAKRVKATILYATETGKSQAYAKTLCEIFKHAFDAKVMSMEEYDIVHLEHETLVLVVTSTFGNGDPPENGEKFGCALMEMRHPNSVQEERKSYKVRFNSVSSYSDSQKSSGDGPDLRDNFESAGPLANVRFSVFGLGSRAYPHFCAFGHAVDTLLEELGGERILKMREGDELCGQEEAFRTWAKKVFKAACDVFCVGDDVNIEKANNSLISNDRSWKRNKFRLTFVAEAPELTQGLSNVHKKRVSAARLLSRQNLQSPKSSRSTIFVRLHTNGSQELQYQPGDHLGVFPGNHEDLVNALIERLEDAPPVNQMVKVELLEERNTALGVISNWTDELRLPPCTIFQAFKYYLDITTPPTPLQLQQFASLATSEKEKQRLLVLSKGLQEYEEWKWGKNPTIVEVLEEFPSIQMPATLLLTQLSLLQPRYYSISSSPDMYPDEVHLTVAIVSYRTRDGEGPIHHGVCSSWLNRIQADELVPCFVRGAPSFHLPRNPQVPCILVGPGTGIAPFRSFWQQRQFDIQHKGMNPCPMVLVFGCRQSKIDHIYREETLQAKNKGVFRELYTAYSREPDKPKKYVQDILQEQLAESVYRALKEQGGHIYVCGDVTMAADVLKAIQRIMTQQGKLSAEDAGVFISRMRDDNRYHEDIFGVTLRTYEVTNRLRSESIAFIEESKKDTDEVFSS
Test: Inhibition of human neuronal NOS expressed in Escherichia coli using L-arginine as substrate assessed as reduction in NO production by measuring oxidation of oxyHb to metHb measured for 6 mins by hemoglobin- NO capture assay
# Y = Ki below 80 nM (exclusive); N = Ki at/above 80 nM

structure_string	target_under_test	group_label
CNCc1cccc(-c2cc(F)cc(CCc3cc(C)cc(N)n3)c2)c1	Nitric oxide synthase 1 (Homo sapiens)	N
CNCc1ccc(-c2cc(F)cc(CCc3cc(C)cc(N)n3)c2)cc1	Nitric oxide synthase 1 (Homo sapiens)	N
CNCCCc1cc(C#N)cc(CCc2cc(C)cc(N)n2)c1	Nitric oxide synthase 1 (Homo sapiens)	N
Cc1cc(N)nc(CCc2cccc(CCCN(C)C)c2)c1	Nitric oxide synthase 1 (Homo sapiens)	Y
CNCCCc1cc(F)cc(CCc2cc(C)cc(N)n2)c1	Nitric oxide synthase 1 (Homo sapiens)	Y
CNCCCc1cc(CCc2cc(C)cc(N)n2)cc(C(F)(F)F)c1	Nitric oxide synthase 1 (Homo sapiens)	N
CNCCCc1cccc(CCc2cc(C)cc(N)n2)c1	Nitric oxide synthase 1 (Homo sapiens)	Y
CNCc1ccc(-c2cncc(CCc3cc(C)cc(N)n3)c2)cc1	Nitric oxide synthase 1 (Homo sapiens)	N

###

Molecular target: Nitric oxide synthase 1 (Rattus norvegicus)
Sequence (P29476 whole entry): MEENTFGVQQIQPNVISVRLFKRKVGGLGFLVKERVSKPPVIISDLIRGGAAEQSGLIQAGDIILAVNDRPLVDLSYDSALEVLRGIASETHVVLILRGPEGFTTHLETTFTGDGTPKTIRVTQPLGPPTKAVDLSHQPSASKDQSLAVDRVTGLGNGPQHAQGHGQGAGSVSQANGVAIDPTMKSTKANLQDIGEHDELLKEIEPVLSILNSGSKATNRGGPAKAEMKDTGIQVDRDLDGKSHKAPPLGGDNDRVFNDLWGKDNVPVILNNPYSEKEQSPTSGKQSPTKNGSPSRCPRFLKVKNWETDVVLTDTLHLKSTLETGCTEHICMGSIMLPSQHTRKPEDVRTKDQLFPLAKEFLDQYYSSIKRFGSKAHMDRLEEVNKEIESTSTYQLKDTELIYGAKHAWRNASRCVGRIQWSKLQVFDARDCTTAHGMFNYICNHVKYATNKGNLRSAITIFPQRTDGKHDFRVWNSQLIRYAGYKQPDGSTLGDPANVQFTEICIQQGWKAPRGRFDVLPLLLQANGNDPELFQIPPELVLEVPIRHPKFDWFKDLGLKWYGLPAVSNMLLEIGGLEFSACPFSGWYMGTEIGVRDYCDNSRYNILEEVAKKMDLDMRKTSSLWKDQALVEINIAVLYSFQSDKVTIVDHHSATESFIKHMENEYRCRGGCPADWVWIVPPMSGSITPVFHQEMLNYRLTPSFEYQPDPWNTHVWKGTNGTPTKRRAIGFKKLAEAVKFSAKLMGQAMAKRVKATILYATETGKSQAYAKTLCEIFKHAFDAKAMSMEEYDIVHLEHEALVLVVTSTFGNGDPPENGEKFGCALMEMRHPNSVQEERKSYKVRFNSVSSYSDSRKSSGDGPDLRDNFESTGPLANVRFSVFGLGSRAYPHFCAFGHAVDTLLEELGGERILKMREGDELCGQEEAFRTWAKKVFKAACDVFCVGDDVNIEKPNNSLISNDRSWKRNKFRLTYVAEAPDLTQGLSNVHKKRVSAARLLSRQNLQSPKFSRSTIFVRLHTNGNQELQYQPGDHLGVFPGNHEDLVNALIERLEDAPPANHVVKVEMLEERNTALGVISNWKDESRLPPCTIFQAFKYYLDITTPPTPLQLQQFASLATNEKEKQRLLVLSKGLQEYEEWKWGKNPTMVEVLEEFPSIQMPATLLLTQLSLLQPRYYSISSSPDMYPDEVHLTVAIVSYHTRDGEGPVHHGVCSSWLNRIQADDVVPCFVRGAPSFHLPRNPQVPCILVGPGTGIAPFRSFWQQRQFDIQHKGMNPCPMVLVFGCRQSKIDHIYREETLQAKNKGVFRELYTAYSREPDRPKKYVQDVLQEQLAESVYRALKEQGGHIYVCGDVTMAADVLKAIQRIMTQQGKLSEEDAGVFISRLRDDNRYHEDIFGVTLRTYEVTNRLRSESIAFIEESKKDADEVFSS
# Ki listing for each entry below

structure_string	target_under_test	Ki, nM
CNCCCc1cc(C#N)cc(CCc2cc(C)cc(N)n2)c1	Nitric oxide synthase 1 (Rattus norvegicus)	252
CNCc1ccc(-c2cc(F)cc(CCc3cc(C)cc(N)n3)c2)cc1	Nitric oxide synthase 1 (Rattus norvegicus)	185
Cc1cc(N)nc(CCc2cc(CCCN(C)C)cc(C(F)(F)F)c2)c1	Nitric oxide synthase 1 (Rattus norvegicus)	541
Cc1cc(N)nc(CCc2cc(C#N)cc(CCCN(C)C)c2)c1	Nitric oxide synthase 1 (Rattus norvegicus)	232

###

Assay: physchem
Conditions: PAMPA
Description: Effective permeability of compound at 200 uM after 17 hrs by PAMPA-BBB assay

structure_string	units_text	Papp at 17 h, 200 µM
CNCc1cccc(-c2cc(F)cc(CCc3cc(C)cc(N)n3)c2)c1	×10⁻⁶ cm/s	17.4
CNCCCc1cccc(CCc2cc(C)cc(N)n2)c1	×10⁻⁶ cm/s	10.4
CNCc1cccc(-c2cncc(CCc3cc(C)cc(N)n3)c2)c1	×10⁻⁶ cm/s	5.56
